Tested on: IGROV1 ovarian
Measurement Notes: NCI-60 one-dose screen, 48 h (100 = growth as untreated, 0 = no growth, -100 = all killed)
Experimental Setup: 10 µM unless noted
This is part of a sample that, as a whole, favours compounds with a hit. Of some 83,000 tested, about 20% had one in any assay.
Kindly apply the following: Criterion met if growth is less than 40%, Criterion not met in every other case.

Example entries and their recorded answers appear below.
Cc1ccc(S(=O)(=O)N(c2ccc(Cl)cc2)c2ccc(Br)cc2C(=O)O)cc1 = Criterion not met
CCN1CCN(c2ccc(Nc3ncc4ccc5ncn(C(C)C)c5c4n3)nc2)CC1 = Criterion met
C=CC(=O)N1CC2(CC(n3nc(-c4ccc(Oc5ccccc5)cc4)c4c(N)ncnc43)C2)C1 = Criterion met
O=C(CCCCCCC(=O)Nc1ccc2c(c1)/C(=C/c1ccc[nH]1)C(=O)N2)NO = Criterion met

Prompt: # strict comparison: is reported growth < 40%? input = COc1ccc(S(=O)(=O)ON=C2C=C(C)C(=O)C(C)=C2)cc1
Completion: Criterion not met

Prompt: Try this compound too: COC(=O)C1C2CC3c4[nH]c5cc(OC)ccc5c4CCN3CC2CC(OC2CCCCO2)C1OC (stereo not drawn)
Completion: Criterion not met

Prompt: How about CCN1C(=O)C2(Nc3ccccc3S2)c2cc(C)ccc21 (stereo not drawn) ?
Completion: Criterion not met

Prompt: Try this compound next: COc1cc(-c2nc3ccccc3o2)cc(CN2CCN(c3ccccc3)CC2)c1O
Completion: Criterion not met

Prompt: Cc1cc(=O)[nH]n1-c1cc(Cl)ccc1N , same question.
Completion: Criterion not met

Prompt: Do the same for COc1cc(C(=O)N(C(C)C)C2CCCCC2)cc(OC)c1OC please
Completion: Criterion not met

Prompt: CCCCC(=O)N/N=C/c1cc(I)cc(I)c1O , same question.
Completion: Criterion met

Prompt: // query: CCCCCCCC/C=C\CCCCCCCCOc1cccc(CC(=O)NCC[N+](C)(C)C)c1
Completion: Criterion met

Prompt: Can you handle O=c1[nH]c(=S)[nH]c(=O)n1Cc1cccc2ccccc12 next?
Completion: Criterion not met

Prompt: Moving on to CCC(C)Oc1cc(/C=N/NC(=O)c2cnn3c2NC(c2ccccc2)C3)ccc1OC (stereo not drawn)
Completion: Criterion not met

Prompt: Moving on to COc1ccc(/C=N/OCC(O)CNCc2ccccc2)cc1OC1CCCC1 (stereo not drawn)
Completion: Criterion not met

Prompt: Please answer likewise for Cc1cccc2c(=O)c3c(sc12)c(NCCNCCO)nc1ccccc13
Completion: Criterion met

Prompt: Next up: COC(=O)c1c2c(c(C)[n+]([O-])c1C)C(=O)C=C(NCc1ccc(F)c(Cl)c1)C2=O
Completion: Criterion met

Prompt: Entry COC(=O)[C@H]1CCCN1C(=O)[C@H]1CCCN1C(=O)[C@@H](Cc1c[nH]c2ccccc12)NC(=S)Nc1cc(C(F)(F)F)cc(C(F)(F)F)c1 please
Completion: Criterion met

Prompt: Follow-up item: COc1cc(OCc2cccc(-c3ccc(C(O)c4nccs4)cc3)c2C)cc(OC)c1C=O (stereo not drawn)
Completion: Criterion met

Prompt: Same question, O=C1NC(=S)S/C1=C\c1cccc([N+](=O)[O-])c1 this time
Completion: Criterion not met

Prompt: Would you mind doing CCOC(=O)c1cc2c(n(C)c1=O)-c1cnn(-c3ccc(OC)cc3)c1CC2 as well?
Completion: Criterion not met

Prompt: Next: Clc1nc(-c2ccccn2)nc2sc3c(c12)CCCCCC3
Completion: Criterion not met

Prompt: Try O=C(O)c1ccccc1Oc1cc(-c2ccco2)nc(OCCBr)n1 next.
Completion: Criterion not met

Prompt: Request: Fc1ccccc1Nc1ccc2nnc(-c3ccncc3)n2n1
Completion: Criterion not met

Prompt: // repeat for COc1ccc(-c2nc3sc(C)cn3c2/C=C/C(=O)c2cc(OC)c(OC)c(OC)c2)cc1 and report
Completion: Criterion not met

Prompt: How about this compound: O=C(Nc1ccccc1)Oc1cccc2cccnc12
Completion: Criterion met

Prompt: Repeat with COc1cc2cc(Oc3ccc(NC(=O)Nc4ccc(Cl)c(C(F)(F)F)c4)cc3)c(C)nc2cc1OCCN1CCCCC1
Completion: Criterion met

Prompt: Then this compound: O=C1/C(=C/c2ccc(Oc3ccccc3)cc2)N=C(c2ccccc2)N1CCc1cccs1
Completion: Criterion not met

###

Test system: A549/ATCC NSCLC
Measurement Notes: NCI-60 one-dose screen, 48 h
Experimental Setup: 10 µM unless noted
The panel holds about 83,000 compounds, 20% with a hit somewhere; the sample as a whole holds those more often. Active and inactive are the calls of the source. How the source made its calls: active means growth percent below 10; inactive means the rest.
In this exercise, the only acceptable responses are active, inactive

COc1ccc(OC)c(/C=C2\Oc3cc(O)ccc3C2=O)c1 = inactive
c1ccc(-c2n(Cc3ccc4ccccc4c3)c3ccccc3[n+]2Cc2ccc3ccccc3c2)cc1 = active
Brc1ccccc1Nc1ccc2nnc(-c3ccncc3)n2n1 = inactive
CC(C)(C)CC(C)(C)N(CSc1ccc(Cl)cc1)CSc1ccc(Cl)cc1 = inactive

Prompt: Name the outcome recorded for Cc1ccccc1-n1nnc(C(=O)Nc2nc(-c3ccccc3)c(-c3ccccc3)s2)c1C in the assay.
Completion: inactive

Prompt: And CC1SC(c2ccc(Cl)cc2)N(CCc2cccs2)C1=O (configuration not stated) ?
Completion: active

Prompt: Likewise for COc1cc(-c2nc(SC(C)C)nc(Nc3cccc(C)c3)c2C#N)cc(OC)c1OC ?
Completion: inactive

Prompt: Entry O=c1nc(NO)[nH]c(=O)n1Cc1ccccc1 please
Completion: inactive

Prompt: Here is the next compound: CCOC(=O)c1sc(NC(=O)CN2CCC(Cc3ccccc3)CC2)nc1C
Completion: inactive

Prompt: Request: CC(=O)OC[C@]1(C)C=C2C(=O)[C@](C)(O)C3(CC3)C(C)=C2[C@H]1OC(C)=O
Completion: inactive

Prompt: Next entry: Clc1ccc(C2=Nc3cccc4cccc(c34)N2)cc1Cl
Completion: inactive

###

System: SW-620 colon
Measurement Notes: NCI-60 one-dose screen, 48 h (100 = growth as untreated, 0 = no growth, -100 = all killed)
Experimental Setup: 10 µM unless noted
Compounds without any hit were thinned out: in the full panel of roughly 83,000, 20% have a hit.
Examples of molecules with documented growth follow.
Answer in %, number only, no unit symbol.

The cases that follow already have their growth on record.
COc1ccc(/C=C2\CN(Cc3cn(CCCNc4ccnc5cc(Cl)ccc45)nn3)C/C(=C\c3ccc(OC)cc3)C2=O)cc1 = 46.4
CC1SC(c2ccc(Cl)cc2)N(CCc2cccs2)C1=O (configuration not stated) = 12.4

Prompt: What does the record list as growth for CCOC(=O)c1c(Cl)c2c(n1Cc1ccc(OC)cc1)-c1oncc1CCC2 ?
Completion: 71.1

Prompt: Now this one: Cc1nn(CC(=O)O)c2c1C(=O)CC(C)(C)C2
Completion: 117

Prompt: Thanks! And NC(=O)c1cc(I)ccc1NC(=O)COc1ccc(Cl)cc1Cl ?
Completion: 79.6

Prompt: Same lookup for O=C(C[Si](CC(=O)c1cccc(C(F)(F)F)c1)CC(=O)c1cccc(C(F)(F)F)c1)c1cccc(C(F)(F)F)c1 , please.
Completion: 35

Prompt: Then CCOc1ccc(/C=N\N2CCCCCC2)cc1OCC ?
Completion: 114

Prompt: Cool, now COc1ccc(C2SC(C)C(=O)N2CCc2cccs2)cc1OC (configuration not stated)
Completion: 102

Prompt: Query C=C1CC[C@@H]2[C@@](C)(CCC[C@]2(C)C(=O)O)[C@@H]1CC[C@H](CO)CCO next
Completion: 114

Prompt: Record: Nc1c(Br)cc(Br)cc1-c1n[nH]c(=O)[nH]c1=O
Completion: 96.9

Prompt: Similarly, Fc1c[c-]c(-c2ccccn2)c(F)c1.Fc1c[c-]c(-c2ccccn2)c(F)c1.[Cl][Pt+].[Cl][Pt+].c1ccc([PH+](C[PH+](c2ccccc2)c2ccccc2)c2ccccc2)cc1 ?
Completion: 15.5

Prompt: Similarly, CC(C)(C)[Si](C)(C)OC1[C@@H](O[Si](C)(C)C(C)(C)C)[C@@H](CNC(=O)NC(=O)C(F)(F)F)O[C@H]1n1cnc2c(NC(=O)Nc3ccccc3)ncnc21 (some centres not stated) ?
Completion: 71.2

###

Items are presented alongside their recorded growth.
Tested on: MCF7 breast
Measurement Notes: NCI-60 one-dose screen, 48 h (100 = growth as untreated, 0 = no growth, -100 = all killed)
Experimental Setup: 10 µM unless noted
This is part of a sample that, as a whole, favours compounds with a hit. Of some 83,000 tested, about 20% had one in any assay. Activity calls are given as the source filed them. Rule for the calls: active = growth percent below 10; inactive = the rest.

Consider the reported growth for these compounds:
O=C(COc1cccc(/C=C2\COc3ccccc3C2=O)c1)c1ccccc1 = 7.63% (active)
Oc1cccc(Nc2nc(-c3ccccn3)cs2)c1 = 84.1% (inactive)
COc1cc(-c2ccc3cc(OC)c(OC)c(OC)c3c2)cc(OC)c1OC = 49.4% (inactive)
C=C(C)CCCC(C)CC#N (configuration not stated) = 99.3% (inactive)
COc1cc2cc(Oc3ccc(NC(=O)Nc4cccc(C(F)(F)F)c4)cc3)c(C)nc2cc1OCCN1CCCCC1 = -80.4% (active)
CCCCCCCCCCCCCCNc1nc(CO)ncc1-c1ccc(C(F)(F)F)cc1 = 96.2% (inactive)

Could you now consider this next compound?
Prompt: Fill in the recorded growth for this compound, with MCF7 breast as test system: Cn1c2ccc(Cl)cc2c2nn(C(=O)c3ccccc3)c(=O)nc21
Completion: 94.7% (inactive)
